melting point values by entry

Please review the entries below; each comes with its answer.
CC(C)(C)OC(=O)NCCNC(=O)c1ccc(Br)cn1 = 118 °C
CCCCCCCCc1ccc(NC(=O)Nc2ccc(S(N)(=O)=O)cc2)cc1 = 282 to 283 °C
C[C@@H](S[C@H]1CC[C@H](/C=C/C=C/c2ccc(C(F)(F)F)cc2)CC1)[C@](O)(Cn1cncn1)c1ccc(F)cc1F = 74 to 76 °C
CCCCCCC(C)(C)c1ccc(C2=CCCNC2)c(O)c1 = 122 to 123 °C
COc1ccc(CC(NC(C)=O)C(=O)O)cc1 (racemic) = 144 to 146 °C
O=C(CCCN1CCC(=C(c2ccccc2)c2ccccc2)CC1)c1ccc(F)cc1 = 111 to 114 °C
CC12CCC(C(=Cc3ccc(CI)cc3)C1=O)C2(C)C (stereo not given) = 108 °C
C[C@]1(O)c2ccccc2CC[C@H]1O (relative stereo) = 75 °C
CC(C)C[C@H](NC(=O)[C@H](Cc1c[nH]cn1)NC(=O)[C@H](Cc1cccc2ccccc12)NC(=O)OCc1ccccc1)[C@@H](O)CC=O = 166 to 168 °C
O=C(Nc1ccc(N2CCN(C(=O)C(F)(F)F)CC2)cc1)C(F)(F)F = 193 to 194 °C

Query string: Please give the documented melting point of CCc1cccc(CC)c1NC(=O)NCC1(c2ccccc2)CCCCC1
Result string: 185 to 186 °C

Query string: Please give the documented melting point of CCNc1nc(C(C)(C)C)nn1-c1c(Cl)cc(C(F)(F)F)cc1Cl
Result string: 67 to 70 °C

Query string: Please give the documented melting point of Oc1ccc(-c2nn(C3CCC3)c3c(C(F)(F)F)cccc23)c(O)c1
Result string: 124 to 125 °C

Query string: Please give the documented melting point of Cc1nc(N2CCN(Cc3ccccc3)C2=O)sc1C(=O)O
Result string: 248 to 249 °C

Query string: Please give the documented melting point of COc1cc2cc(C(=O)O)[nH]c2c2c1OCCC2=O
Result string: 312 °C

Query string: Please give the documented melting point of CC(C)(Cl)C(CCN1C(=O)c2ccccc2C1=O)N=O (stereo not given)
Result string: 140 to 141 °C

Query string: Please give the documented melting point of Cc1cc(OC(=O)N[C@@H](CCC(=O)O)C(=O)O)ccc1N(CCCl)CCCl
Result string: 160 to 162 °C

Query string: Please give the documented melting point of COc1cccc2c(CN3CC=C(CCc4ccccc4)CC3)c[nH]c12
Result string: 131 to 133 °C

Query string: Please give the documented melting point of O=C(O)c1ccc(COCc2csc3nc(C(=O)NCc4cccc(OC(F)(F)F)c4)[nH]c(=O)c23)cc1
Result string: 248 to 250 °C

Query string: Please give the documented melting point of CCOC(=O)C1CCC2(NCCc3cc(OC)c(OC)cc32)C(C2c3cc(OC)c(OC)cc3CCN2CC)C1 (stereo not given)
Result string: 140 to 142 °C

Query string: Please give the documented melting point of Cc1c(SCCCCl)ccnc1CSc1nc2cc(F)ccc2[nH]1
Result string: 188 to 191 °C

Query string: Please give the documented melting point of C=CC[C@@H](C(=O)N[C@H](C(=O)N[C@H](C)c1ccccc1)C(C)(C)C)[C@@H]1OC(C)(C)OC1=O
Result string: 178 to 180 °C
